ASSAY_TARGET: PI3K-β (p110β/p85α) (Homo sapiens, UniProt P42338)
Sequence (P42338 whole entry, canonical isoform): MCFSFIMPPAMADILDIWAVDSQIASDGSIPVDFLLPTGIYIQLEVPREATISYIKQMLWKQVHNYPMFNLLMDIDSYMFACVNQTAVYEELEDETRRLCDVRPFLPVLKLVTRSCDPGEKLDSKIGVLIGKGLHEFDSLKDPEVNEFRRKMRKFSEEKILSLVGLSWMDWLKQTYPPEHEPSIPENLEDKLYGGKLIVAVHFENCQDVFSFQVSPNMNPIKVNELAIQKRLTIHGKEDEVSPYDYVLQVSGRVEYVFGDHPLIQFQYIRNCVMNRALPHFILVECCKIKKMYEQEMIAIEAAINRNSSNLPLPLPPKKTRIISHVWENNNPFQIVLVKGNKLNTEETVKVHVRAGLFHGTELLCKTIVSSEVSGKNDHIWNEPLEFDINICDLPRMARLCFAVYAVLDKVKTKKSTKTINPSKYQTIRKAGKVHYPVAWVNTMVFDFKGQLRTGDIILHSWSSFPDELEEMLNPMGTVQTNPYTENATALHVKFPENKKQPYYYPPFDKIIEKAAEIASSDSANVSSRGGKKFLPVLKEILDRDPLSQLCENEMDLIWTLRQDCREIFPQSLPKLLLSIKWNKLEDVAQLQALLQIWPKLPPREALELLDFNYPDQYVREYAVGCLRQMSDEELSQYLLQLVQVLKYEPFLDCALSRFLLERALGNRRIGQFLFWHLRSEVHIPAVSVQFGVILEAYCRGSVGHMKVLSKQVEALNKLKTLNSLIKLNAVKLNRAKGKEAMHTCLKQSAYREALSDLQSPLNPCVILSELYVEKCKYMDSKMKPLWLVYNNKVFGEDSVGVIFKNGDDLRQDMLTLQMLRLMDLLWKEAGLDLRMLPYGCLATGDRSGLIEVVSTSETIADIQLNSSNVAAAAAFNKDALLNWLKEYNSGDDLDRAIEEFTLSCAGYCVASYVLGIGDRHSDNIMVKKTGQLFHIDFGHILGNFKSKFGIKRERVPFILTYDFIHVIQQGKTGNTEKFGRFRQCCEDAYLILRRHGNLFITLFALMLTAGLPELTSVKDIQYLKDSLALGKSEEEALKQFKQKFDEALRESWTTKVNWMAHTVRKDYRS
Sequence (P27986 whole entry partner, canonical isoform): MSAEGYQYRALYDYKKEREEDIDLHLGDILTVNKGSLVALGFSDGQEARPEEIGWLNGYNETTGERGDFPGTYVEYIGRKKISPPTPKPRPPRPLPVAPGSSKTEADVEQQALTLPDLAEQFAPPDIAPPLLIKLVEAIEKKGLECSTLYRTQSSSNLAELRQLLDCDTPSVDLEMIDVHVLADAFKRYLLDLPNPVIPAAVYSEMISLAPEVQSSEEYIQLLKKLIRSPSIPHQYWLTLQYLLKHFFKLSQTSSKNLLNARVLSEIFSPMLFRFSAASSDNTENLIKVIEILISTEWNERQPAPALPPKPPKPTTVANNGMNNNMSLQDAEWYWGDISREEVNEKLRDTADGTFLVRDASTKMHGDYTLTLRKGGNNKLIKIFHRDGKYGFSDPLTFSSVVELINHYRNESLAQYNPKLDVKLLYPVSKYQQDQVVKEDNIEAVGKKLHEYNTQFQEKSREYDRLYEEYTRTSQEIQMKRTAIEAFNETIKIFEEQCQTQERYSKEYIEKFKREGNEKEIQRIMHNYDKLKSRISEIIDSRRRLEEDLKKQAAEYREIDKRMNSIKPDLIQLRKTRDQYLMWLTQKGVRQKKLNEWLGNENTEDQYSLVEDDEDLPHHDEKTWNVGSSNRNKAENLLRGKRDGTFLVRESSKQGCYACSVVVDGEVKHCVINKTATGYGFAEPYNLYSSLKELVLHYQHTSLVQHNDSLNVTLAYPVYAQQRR
METHOD_DESCRIPTION: PI3K isoforms biochemical assay (HTRF), PI3K-β
APPLIED_CONDITIONS: read-out: PI3Kβ IC50
OUTCOME_MEASURE: IC50

| SMILES_STRUCTURE | OUTCOME_MEASURE | TEST_RESULT |
| --- | --- | --- |
| CS(=O)(=O)N1CCN(Cc2cc3c(N4CCOCC4)nc(-c4cnc(N)nc4)cn3n2)CC1 | IC50 | 49.2 nM |

----------
Measured inhibition at 10 µM values are reported for all entries that follow.
System: p-AKT S473 in CHA-9.3 mouse lung cancer cell line
METHOD_DESCRIPTION: Western blot of AKT phosphorylation at Ser473 in CHA-9.3 cells
Type: cell-based
APPLIED_CONDITIONS: Mus musculus, 4 h, 10 μM, 4 h, read-out: Inhibition pAKT (Ser 473) with regard to DMSO
OUTCOME_MEASURE: inhibition at 10 µM

| MOLECULE | ASSAY_TARGET | OUTCOME_MEASURE | TEST_RESULT |
| --- | --- | --- | --- |
| CS(=O)(=O)N1CCN(Cc2cc3c(N4CCCCC4)nc(-c4cnc(N)nc4)cn3n2)CC1 [ETP-51259] | p-AKT S473 in CHA-9.3 mouse lung cancer cell line | inhibition at 10 µM | 49% |
| Cc1cnc2c(N3CCOCC3)nc(-c3ccc(NC(=O)Nc4ccc(C(=O)N5CCN(C)CC5)cc4)cc3)cn12 [ETP-47228] | p-AKT S473 in CHA-9.3 mouse lung cancer cell line | inhibition at 10 µM | 93% |
| CS(=O)(=O)N1CCN(Cc2cc3c(N4CCOCC4)nc(-c4cnc(N)nc4)cn3n2)CC1 [ETP-47037] | p-AKT S473 in CHA-9.3 mouse lung cancer cell line | inhibition at 10 µM | 97% |
| Cc1cnc2c(N3CCCCC3)nc(-c3ccc(NC(=O)Nc4ccc(C(=O)N5CCN(C)CC5)cc4)cc3)cn12 [ETP-50952] | p-AKT S473 in CHA-9.3 mouse lung cancer cell line | inhibition at 10 µM | 18% |
